- Tested on: 80S14 (p21-deficient) cells
- assayExplanation: Cytotoxicity assay using isogenic cell lines: IC50 in 80S14 (p21-deficient) cells, SRB
- Assay type: cell-based, human
- runConditions: Homo sapiens, 120 h; 80S14 (p21-deficient) cells, 5 days, SRB; numeric value; read-out: IC50 for 80S14
assayMetric: pIC50
Formally, pIC50 is defined as -log10 of the concentration c, with c in mol/L.

// fetch pIC50 given entry CCCCNC(=N)OC(=N)N(CCCC)c1cccc(-c2ccnc3c(C(=O)c4cccs4)cnn23)c1 5.35

* * *

- System: 80S14 (p21-deficient) cells
- assayExplanation: Cytotoxicity assay using isogenic cell lines: IC50 in 80S14 (p21-deficient) cells, SRB
- Type: cell-based, human
- runConditions: 80S14 (p21-deficient) cells, 5 days, SRB; class symbols; read-out: IC50 for 80S14
pIC50: −log10 of the molar value.
The following molecules are shown together with reported pIC50 values.

Guide cases for pIC50, answers given:
C#CCN(C(=O)C1CC1)c1cccc(-c2ccnc3c(C(=O)OCC)cnn23)c1 : 4.30 to 5.00
Cc1cc(-c2cccc(NC(=O)C3CO3)c2)n2ncc(C(=O)c3cccs3)c2n1 (centres unmarked) : > 6.00
Cc1cc(C)cc(-c2cnn3c(-c4cccc(-c5nnn(CCN6CCOCC6)n5)c4)ccnc23)c1 : 5.00 to 6.00
CN(C=O)c1cccc(-c2ccnc3c(C(=O)c4cccs4)cnn23)c1 : 5.00 to 6.00

Dear colleague, please send me the reported pIC50 for CCOC(=O)c1cnn2c(-c3cccc(NC(=O)C4CCC4)c3)ccnc12 when you can. 4.30 to 5.00

* * *

assayMetric: melting point

CCCCNC(=O)Nc1cccc(-c2ccnc3c(C(=O)c4cccs4)cnn23)c1 : 158 to 160 °C
CC(C)NC(=NC#N)Nc1cccc(-c2ccnc3c(C(=O)c4cccs4)cnn23)c1 : 240 to 241 °C
CC(C)CC(=O)Nc1cccc(-c2ccnc3c(-c4cccc(N)c4)cnn23)c1 : 173 to 175 °C
O=C(c1cccs1)c1cnn2c(-c3cccs3)ccnc12 : 193 to 195 °C

We next turn to a different molecule, shown below.
Determine its reported melting point: O=C(c1cccs1)c1cnn2c(-c3cccc(-n4ccnc4)c3)ccnc12 242 to 244 °C

* * *

Measured melting point, listed per entry for reference.

O=C(Nc1cccc(-c2ccnc3c(C(=O)c4cccs4)cnn23)c1)c1ccccc1F : 190 to 191 °C

# return recorded melting point for entry O=C(Nc1cccc(-c2ccnc3c(C(=O)c4cccs4)cnn23)c1)c1ccncc1 212 to 215 °C

Respond only with melting point recorded for O=C(c1cccs1)c1cnn2c(Cl)ccnc12 148 to 150 °C

// fetch melting point given entry O=C(c1ccco1)c1cnn2c(-c3cccc(-n4cccc4)c3)ccnc12 204 to 206 °C

Dear colleague, please send me the reported melting point for CC(C)NC(=N)Nc1cccc(-c2ccnc3c(C(=O)c4cccs4)cnn23)c1 when you can. > 200 °C

Identify the reported melting point for the following entry. O=C(c1cccs1)c1cnn2c(-c3cccc(-c4ccn(CCN5CCCCC5)n4)c3)ccnc12 62 °C

Item CC(C)CCNc1cccc(-c2ccnc3c(C(=O)c4cccs4)cnn23)c1 : provide melting point 75 to 77 °C

Identify measured melting point associated with Cc1cn(-c2cccc(-c3ccnc4c(C(=O)c5cccs5)cnn34)c2)cn1 232 to 234 °C

Tell us which melting point value is on record for O=C(Nc1cccc(-c2ccnc3c(C(=O)c4cccs4)cnn23)c1)OCCCN1CCS(=O)(=O)CC1 148 to 159 °C

Give the measured melting point for COc1ccccc1/C=C/CNc1cccc(-c2ccnc3c(C(=O)c4cccs4)cnn23)c1 128 to 131 °C

* * *

melting point values for the compounds below.

Some compounds with known melting point results, for comparison:
O=C(c1ccco1)c1cnn2c(-c3cccc(NC(=O)C4CC4)c3)ccnc12 : 227 to 230 °C
O=C(c1cccs1)c1cnn2c(-c3cccc(-c4cc[nH]n4)c3)ccnc12 : 129 °C

Now turn to the next compound.
Please look at this compound and report its melting point: O=C(c1cccs1)c1cnn2c(-c3cccc(NC(=O)C4CC4)c3)ccnc12 192 to 194 °C
